Test system: SK-MEL-2 melanoma
Experiment: NCI tumour cell line growth inhibition, 48 h
Result type: TGI

Recorded TGI for Cn1c(=O)c(-c2c(Cl)cccc2Cl)cc2cnc(Nc3ccc(I)cc3)nc21 , please?
> 100 µM

Recorded TGI for O=C(O)C1C2CCC(O2)C1C(=O)NCc1cccnc1 (configuration not stated) , please?
> 100 µM

----------
System: 786-0 renal
Assay: NCI tumour cell line growth inhibition, 48 h
Result type: TGI (µM)
Lab book: enter the figure in µM, no units written.

Molecule | TGI / µM
CC(=O)N1CCN(CCCCN2c3ccccc3Sc3cc(N=[N+]=[N-])ccc32)CC1 | 29.5

Now look at this entry.
Recorded TGI for COc1cc([C@@H]2c3cc4c(cc3[C@@H](NC(=O)c3ccc(OC(C)=O)cc3)C3COC(=O)[C@@H]32)OCO4)cc(OC)c1O (stereo not given in full) , please?
3.47

----------
System: SNB-19 CNS
Test: NCI tumour cell line growth inhibition, 48 h
Result type: TGI

Answered cases to consult:
Compound | Tested on | Result type | Result
COc1cc2oc(-c3ccc(O)cc3)cc(=O)c2c(OC)c1O | SNB-19 CNS | TGI | > 100 µM
CCC1OC(=O)CC(O)C(C)C(OC2OC(C)CC(N(C)C)C2O)C(CC=O)CC(C)C(=O)/C=C/C2(C)OC2C1C (centres undefined) | SNB-19 CNS | TGI | 30.6 µM
C=C(C)C1CCC2(C(=O)O)CCC3(C)C(CCC4C5(C)CCC(O)C(C)(C)C5CCC43C)C12 (centres undefined) | SNB-19 CNS | TGI | 39.7 µM
COc1ccc(Nc2ncccc2C(=O)NCc2cn(Cc3cccc(Oc4ccccc4)c3)nn2)c(OC)c1 | SNB-19 CNS | TGI | > 100 µM
Cc1ccc(S(=O)(=O)OC2CSSCC2OS(=O)(=O)c2ccc(C)cc2)cc1 (centres undefined) | SNB-19 CNS | TGI | 31.7 µM
Nc1nc(-c2ccc3ccccc3c2)cc(-c2cc(-c3ccc4ccccc4c3)nc(N)n2)n1 | SNB-19 CNS | TGI | > 100 µM
COC(=O)Cc1nn2c(nc1=O)sc1ccc3ccccc3c12 | SNB-19 CNS | TGI | > 100 µM
O=C1C(Cl)C(c2ccc([N+](=O)[O-])cc2)N1n1cnc2ccccc2c1=O (centres undefined) | SNB-19 CNS | TGI | > 100 µM
Cn1c(=O)c(-c2c(Cl)cccc2Cl)cc2cnc(Nc3ccc(I)cc3)nc21 | SNB-19 CNS | TGI | > 100 µM
Cc1cc2nc3c4cc([N+](=O)[O-])ccc4n(CCN(C)C)c3nc2cc1C | SNB-19 CNS | TGI | > 32 µM

Recorded TGI for O=[N+]([O-])c1cccc([I+]c2ccccc2)c1 , please?
26.5 µM

Recorded TGI for O=C1NC2OC(CO)C(O)C(O)C2O1 (centres undefined) , please?
> 100 µM

Recorded TGI for C[C@H]1CCC2C(CN3CCCCC3)C(=O)OC2[C@]2(C)C(=O)CC(N3CCCCC3)C12O (some centres undefined) , please?
73 µM

Recorded TGI for CON(C(=O)OC(C)(C)C)c1ccccc1 , please?
> 100 µM

----------
Test system: UACC-257 melanoma
Assay: NCI tumour cell line growth inhibition, 48 h
Result type: TGI (µM)
Lab book: enter the figure in µM, no units written.

Answered cases to consult:
Molecule | Result number
COc1cc(/C=C/c2ccc(S(N)(=O)=O)cc2)cc(OC)c1 | 46.8
COc1cc([C@@H]2c3cc4c(cc3[C@@H](NC(=O)c3ccc(OC(C)=O)cc3)C3COC(=O)[C@@H]32)OCO4)cc(OC)c1O (stereo not given in full) | 31.9

Now look at this entry.
Request: TGI, test system UACC-257 melanoma, entry COC1=CC(c2ccc[nH]2)=N/C1=C\c1[nH]c(C)c(C)c1CCC(=O)OCc1ccccc1
2.97

Source: PubChem BioAssay (NCI)
